This listing pairs compounds with measured GI50.
System: SF-268
Test: NCI tumour cell line growth inhibition, 48 h
Calls of active or inactive are those of the source. No stated cut-off is given here; in the data, active = GI50 up to about 1.1 µM and inactive = higher.
OBSERVABLE: GI50

COMPOUND	OBSERVABLE	ENDPOINT RESULT
COC(OC)C1OC(CO)C(n2ccc(N)nc2=O)C1O (stereo not drawn)	GI50	> 100 µM (inactive)
O=C1c2ccccc2C(=O)c2sc(Nc3cc(Cl)ccc3Cl)nc21	GI50	4.09 µM (inactive)
N#CC(NNC(=O)Cc1ccccc1)c1ccc(O)cc1 (stereo not drawn)	GI50	> 100 µM (inactive)
Cn1ccc(C(=O)NCCN(CCNC(=O)c2ccn(C)c(=O)c2O)CCNC(=O)c2ccn(C)c(=O)c2O)c(O)c1=O	GI50	> 100 µM (inactive)
CC(=O)OCC(OC(C)=O)C(OC(C)=O)C(/C=N\Nc1nc2ccccc2c(=O)[nH]1)=N\Nc1nc2ccccc2c(=O)[nH]1 (stereo not drawn)	GI50	> 100 µM (inactive)
CO[C@H]1C[C@H](O[C@H]2CC[C@]3(C=O)[C@H]4CC[C@]5(C)[C@@H](C6=CC(=O)OC6)CC[C@]5(O)[C@@H]4CC[C@]3(O)C2)O[C@H](C)[C@H]1O[C@@H]1O[C@H](CO[C@@H]2O[C@H](CO)[C@@H](O)[C@H](O)[C@H]2O)[C@@H](O)[C@H](O)[C@H]1O	GI50	0.0356 µM (active)
CCC(C)(O)c1cn(-c2cccc(S(=O)(=O)O)c2)nn1 (stereo not drawn)	GI50	> 100 µM (inactive)
C=Cc1c(C)c(OC)cc2c1Oc1ccc(OC)c(C)c1CC2	GI50	> 100 µM (inactive)
